Where do the numbers come from? From patent US20260158017A1.

# pIC50 per record follows
study.system: Recombinant human KIF18A (1-467His-tagged) protein (Homo sapiens, UniProt Q8NI77)
Construct: Recombinant human KIF18A (1-467His-tagged) protein; His; made in house
Sequence (Q8NI77 1-467): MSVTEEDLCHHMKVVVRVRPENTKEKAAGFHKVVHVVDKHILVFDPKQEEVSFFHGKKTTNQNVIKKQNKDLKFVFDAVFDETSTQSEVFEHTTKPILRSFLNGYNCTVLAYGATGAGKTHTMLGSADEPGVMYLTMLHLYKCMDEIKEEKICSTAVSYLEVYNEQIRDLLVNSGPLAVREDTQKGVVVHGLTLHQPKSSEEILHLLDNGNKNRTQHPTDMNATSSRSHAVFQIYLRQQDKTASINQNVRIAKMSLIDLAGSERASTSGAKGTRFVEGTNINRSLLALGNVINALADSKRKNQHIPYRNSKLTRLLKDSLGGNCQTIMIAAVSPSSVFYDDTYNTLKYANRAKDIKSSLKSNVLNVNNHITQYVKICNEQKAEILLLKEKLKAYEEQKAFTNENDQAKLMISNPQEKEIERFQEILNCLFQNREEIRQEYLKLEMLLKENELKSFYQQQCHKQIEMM
Sequence (P02550 whole entry partner): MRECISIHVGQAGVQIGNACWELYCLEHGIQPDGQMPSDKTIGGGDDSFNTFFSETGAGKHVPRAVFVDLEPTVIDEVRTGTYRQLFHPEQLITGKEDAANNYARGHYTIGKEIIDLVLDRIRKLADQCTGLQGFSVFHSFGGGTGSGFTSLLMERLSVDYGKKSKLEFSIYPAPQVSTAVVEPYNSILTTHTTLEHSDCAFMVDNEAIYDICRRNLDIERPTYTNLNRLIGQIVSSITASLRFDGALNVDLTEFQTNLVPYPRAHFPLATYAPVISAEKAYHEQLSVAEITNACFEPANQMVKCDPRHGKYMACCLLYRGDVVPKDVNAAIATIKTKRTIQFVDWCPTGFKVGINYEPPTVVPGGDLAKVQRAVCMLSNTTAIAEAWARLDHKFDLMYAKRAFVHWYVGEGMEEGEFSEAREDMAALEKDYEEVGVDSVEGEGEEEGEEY
Sequence (P02554 whole entry partner): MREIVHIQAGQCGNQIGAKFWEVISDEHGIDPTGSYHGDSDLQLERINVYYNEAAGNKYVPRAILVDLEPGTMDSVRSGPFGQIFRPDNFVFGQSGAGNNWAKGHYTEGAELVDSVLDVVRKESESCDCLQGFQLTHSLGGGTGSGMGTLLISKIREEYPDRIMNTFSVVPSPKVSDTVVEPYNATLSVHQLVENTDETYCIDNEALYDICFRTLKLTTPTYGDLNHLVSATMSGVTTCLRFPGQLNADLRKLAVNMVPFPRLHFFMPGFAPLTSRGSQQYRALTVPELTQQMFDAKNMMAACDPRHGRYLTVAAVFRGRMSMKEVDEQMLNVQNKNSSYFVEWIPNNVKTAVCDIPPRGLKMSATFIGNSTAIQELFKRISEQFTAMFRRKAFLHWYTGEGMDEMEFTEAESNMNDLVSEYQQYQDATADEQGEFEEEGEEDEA
measurement.notes: KIF18A enzyme assay (microtubule-stimulated ATPase activity, ADP-Glo)
Format: biochemical
condition: 30 nM KIF18A, 75 μM ATP, 30 μg/mL pig microtubules; read-out: Inhibitory activity against KIF18A IC50
pIC50: −log10 of the molar value.

O=C(Nc1ccc(S(=O)(=O)NCCO)cc1N1CCC2(CC1)CC2)c1ccc([N+](=O)[O-])c(N2CC(F)(F)C2)n1 = 6.30 to 7.00
O=C(Nc1ccc(OCF)c(OCCC(F)(F)F)n1)c1cnc(NS(=O)(=O)CCO)cc1N1CCC2(CC1)CC2 = ≥ 7.00
O=C(Nc1ccc([N+](=O)[O-])c(N2CC3CC3C2)c1)c1ccc(S(=O)(=O)NCCO)cc1N1CCC2(CC1)CC2 (stereo not drawn) = ≥ 7.00
O=C(Nc1ccc([N+](=O)[O-])c(N2CCOCC2)n1)c1ccc(NS(=O)(=O)CCO)cc1N1CCC2(CC1)CC2 = ≥ 7.00
C[C@@H]1CN(c2nc(C(=O)Nc3ccc(NS(=O)(=O)CCO)cc3N3CCC4(CC3)CC4)ccc2OCF)CCO1 = ≥ 7.00
C[C@@H](CO)S(=O)(=O)Nc1cc(N2CCC3(CC2)CC3)c(C(=O)Nc2ccc(OCF)c(N3CCC(F)(F)CC3)n2)cn1 = ≥ 7.00
O=C(Nc1ccc(NS(=O)(=O)CCO)cc1N1CCC2(CC1)CC2)c1ccc(OCF)c(N2CC3CC3C2)n1 (stereo not drawn) = ≥ 7.00
O=C(Nc1ccc(S(=O)(=O)NCCO)cc1N1CCC2(CC1)CC2)c1ccc([N+](=O)[O-])c(OCCC(F)(F)F)n1 = 6.30 to 7.00

We next turn to a different molecule, shown below.
query: Which pIC50 value is on record for O=C(Nc1ccc([N+](=O)[O-])c(N2CC(F)(F)C2)n1)c1cnc(NS(=O)(=O)CCO)cc1N1CCC2(CC1)CC2 ?
result: ≥ 7.00

* * *

# IC50 per record follows
study.system: Recombinant human KIF18A (1-467His-tagged) protein (Homo sapiens)
Construct: Recombinant human KIF18A (1-467His-tagged) protein; His
measurement.notes: KIF18A enzyme assay (microtubule-stimulated ATPase activity, ADP-Glo)
condition: 30 nM KIF18A, 75 μM ATP, 30 μg/mL pig microtubules; read-out: Inhibitory activity against KIF18A IC50
Procedure: In Vitro Assay of the Compounds of the Present Invention for Inhibiting Enzymatic Activity of KIF18A KIF18A enzyme assay: The enzymatic activity of KIF18A after treatment with the compounds was measured by an assay of microtubule-stimulated ATPase activity. ADP generated from the ATPase reaction was measured in this assay. […] Luminescence was read using a microplate reader and compared with that of the DMSO group, and then the inhibition percentages and IC50 values of the compounds were calculated.

Solved cases (5 shown):
O=C(Nc1cnc(NS(=O)(=O)CCO)cc1N1CCC2(CC1)CC2)c1ccc([N+](=O)[O-])c(N2CCC(F)CC2)n1 = ≤ 100 nM
O=C(Nc1ccc(S(=O)(=O)NCCO)cc1N1CCC2(CC1)CC2)c1ccc(OCF)c(N2CCC(F)CC2)n1 = 100 to 500 nM
O=C(Nc1ccc(NS(=O)(=O)CCO)cc1N1CCC2(CC1)CC2)c1ccc([N+](=O)[O-])c(OC2CCC2)n1 = ≤ 100 nM
COc1ccc(C(=O)Nc2ccc(NS(=O)(=O)CCO)cc2N2CCC3(CC2)CC3)nc1OC1CCC1 = ≤ 100 nM
COc1ccc(C(=O)Nc2cnc(NS(=O)(=O)CCO)cc2N2CCC3(CC2)CC3)nc1N1CCO[C@H](C)C1 = ≤ 100 nM

query: Which IC50 value is on record for CC1(F)CCN(c2nc(NC(=O)c3cnc(NS(=O)(=O)CCO)cc3N3CCC4(CC3)CC4)ccc2OCF)C1 (centres unmarked) ?
result: ≤ 100 nM

query: Which IC50 value is on record for CC(C)(CO)Nc1nc(C(=O)Nc2cnc(S(=O)(=O)NCCO)cc2N2CCC3(CC2)CC3)ccc1[N+](=O)[O-] ?
result: 100 to 500 nM

query: Which IC50 value is on record for COc1ccc(NC(=O)c2ccc(S(=O)(=O)NCCO)cc2N2CCC3(CC2)CC3)nc1N1CCC(F)(F)CC1 ?
result: ≤ 100 nM

query: Which IC50 value is on record for COc1ccc(NC(=O)c2cnc(S(=O)(=O)NCCO)cc2N2CCC3(CC2)CC3)nc1OC1CCC1 ?
result: ≤ 100 nM

query: Which IC50 value is on record for C[C@@H]1CN(c2nc(NC(=O)c3cnc(S(=O)(=O)NCCO)cc3N3CCC4(CC3)CC4)ccc2[N+](=O)[O-])CCO1 ?
result: ≤ 100 nM

query: Which IC50 value is on record for C[C@@H]1CN(c2cc(C(=O)Nc3ccc(S(=O)(=O)NCCO)cc3N3CCC4(CC3)CC4)ccc2OCF)CCO1 ?
result: 100 to 500 nM

query: Which IC50 value is on record for C[C@H](CO)NS(=O)(=O)c1cc(N2CCC3(CC2)CC3)c(NC(=O)c2ccc([N+](=O)[O-])c(N3CCC(F)(F)CC3)c2)cn1 ?
result: 100 to 500 nM

query: Which IC50 value is on record for C[C@@H]1CN(c2nc(NC(=O)c3cnc(NS(=O)(=O)CCO)cc3N3CCC4(CC3)CC4)ccc2OCF)CCO1 ?
result: ≤ 100 nM

query: Which IC50 value is on record for O=C(Nc1ccc(OCF)c(OC2CCC2)n1)c1ccc(NS(=O)(=O)CCO)cc1N1CCC2(CC1)CC2 ?
result: ≤ 100 nM

* * *

# pIC50 per record follows
study.system: Recombinant human KIF18A (1-467His-tagged) protein (Homo sapiens)
Construct: Recombinant human KIF18A (1-467His-tagged) protein; His
measurement.notes: KIF18A enzyme assay (microtubule-stimulated ATPase activity, ADP-Glo)
condition: 30 nM KIF18A, 75 μM ATP, 30 μg/mL pig microtubules; read-out: Inhibitory activity against KIF18A IC50
pIC50: −log10 of the molar value.

Solved cases (2 shown):
C[C@@H](CO)NS(=O)(=O)c1cc(N2CCC3(CC2)CC3)c(NC(=O)c2ccc([N+](=O)[O-])c(N3CCC(F)(F)CC3)n2)cn1 = 6.30 to 7.00
C[C@H]1CN(c2cc(C(=O)Nc3cnc(NS(=O)(=O)CCO)cc3N3CCC4(CC3)CC4)ccc2[N+](=O)[O-])CCO1 = ≥ 7.00

We next turn to a different molecule, shown below.
query: Which pIC50 value is on record for C[C@@H]1CN(c2cc(NC(=O)c3cnc(NS(=O)(=O)[C@@H](C)CO)cc3N3CCC4(CC3)CC4)ccc2OCF)CCO1 ?
result: ≥ 7.00

* * *

study.system: Recombinant human KIF18A (1-467His-tagged) protein (Homo sapiens, UniProt Q8NI77)
Construct: Recombinant human KIF18A (1-467His-tagged) protein; His
measurement.notes: KIF18A enzyme assay (microtubule-stimulated ATPase activity, ADP-Glo)
condition: 30 nM KIF18A, 75 μM ATP, 30 μg/mL pig microtubules; read-out: Inhibitory activity against KIF18A IC50
pIC50: −log10 of the molar value.
# pIC50 per record follows

Solved cases (3 shown):
CC1(F)CCN(c2cc(NC(=O)c3cnc(NS(=O)(=O)CCO)cc3N3CCC4(CC3)CC4)ccc2OCF)C1 (stereo not shown) [Compound 456] = ≥ 7.00
O=C(Nc1ccc([N+](=O)[O-])c(N2CC3CC3C2)c1)c1ccc(NS(=O)(=O)CCO)cc1N1CCC2(CC1)CC2 (stereo not shown) [Compound 10] = ≥ 7.00
O=C(Nc1cnc(S(=O)(=O)NCCO)cc1N1CCC2(CC1)CC2)c1ccc([N+](=O)[O-])c(N2CCC(F)CC2)n1 [Compound 249] = 6.30 to 7.00

We next turn to a different compound, shown below.
query: Which pIC50 value is on record for O=C(Nc1cnc(S(=O)(=O)NCCO)cc1N1CCC2(CC1)CC2)c1ccc([N+](=O)[O-])c(N2CCC(F)CC2)c1 [Compound 217] ?
result: 6.30 to 7.00

* * *

study.system: Recombinant human KIF18A (1-467His-tagged) protein (Homo sapiens, UniProt Q8NI77)
Construct: Recombinant human KIF18A (1-467His-tagged) protein; His
measurement.notes: KIF18A enzyme assay (microtubule-stimulated ATPase activity, ADP-Glo)
condition: 30 nM KIF18A, 75 μM ATP, 30 μg/mL pig microtubules; read-out: Inhibitory activity against KIF18A IC50
# IC50 per record follows

Solved cases (5 shown):
C[C@@H]1CN(c2nc(C(=O)Nc3ccc(NS(=O)(=O)[C@H](C)CO)cc3N3CCC4(CC3)CC4)ccc2OCF)CCO1 [Compound 560] = ≤ 0.1 µM
O=C(Nc1ccc(S(=O)(=O)NCCO)cc1N1CCC2(CC1)CC2)c1ccc(OCF)c(N2CCOCC2)c1 [Compound 540] = 0.1 to 0.5 µM
COc1ccc(C(=O)Nc2cnc(NS(=O)(=O)[C@H](C)CO)cc2N2CCC3(CC2)CC3)nc1N1CCO[C@H](C)C1 [Compound 368] = ≤ 0.1 µM
C[C@H](CO)S(=O)(=O)Nc1ccc(C(=O)Nc2ccc([N+](=O)[O-])c(N3CCC(F)(F)CC3)c2)c(N2CCC3(CC2)CC3)c1 [Compound 14] = ≤ 0.1 µM
O=C(Nc1cnc(S(=O)(=O)NCCO)cc1N1CCC2(CC1)CC2)c1ccc([N+](=O)[O-])c(OC2CCC2)c1 [Compound 215] = 0.1 to 0.5 µM

query: Which IC50 value is on record for O=C(Nc1ccc([N+](=O)[O-])c(N2CC(F)(F)C2)c1)c1ccc(NS(=O)(=O)CCO)cc1N1CCC2(CC1)CC2 [Compound 4] ?
result: ≤ 0.1 µM
